Record form. Attribute: Activity. Fill in for each entry.
Tested on: Cavia porcellus
assayOverview: In vivo antifungal activity by topical treatment of guinea pig dermatophytosis caused by Trichophyton mentagrophytes at a dose of 0.1%
Assay type: functional
Give bare numbers, in %.

CN(C/C=C/c1ccc(F)cc1)Cc1cccc2ccccc12	21
CN(C/C=C/c1ccccc1)Cc1cccc2c1CCCC2	0
CCCCCOC(=O)/C=C/CN(C)Cc1cccc2ccccc12	0

Hi, could you look up Activity for each item in my list?
1. CN(C/C=C/C1=CCCC1)Cc1cccc2ccccc12
2. CN(C/C=C/c1ccc(Cl)cc1)Cc1cccc2ccccc12
3. Cc1ccc(/C=C/CN(C)Cc2cccc3ccccc23)cc1
4. CN(C/C=C/c1cccs1)Cc1cccc2ccccc12
5. CN(C/C=C/c1ccccc1)Cc1cn(C)c2ccccc12
6. CN(C/C=C/C1=CCCCCC1)Cc1cccc2ccccc12
7. CC(c1cccc2ccccc12)N(C)C/C=C/c1ccccc1 (centres undefined)

Result string:
1: 30; 2: 0; 3: 7; 4: 13; 5: 0; 6: 29; 7: 15

Hi, could you look up Activity for each item in my list?
1. CN(C/C=C/C1=CCCCC1)Cc1cccc2ccccc12
2. CN(C/C=C\c1ccccc1)Cc1cccc2ccccc12
3. CN(C/C=C/c1ccccc1)Cc1ccnc2ccccc12
4. CN(C/C=C/c1ccccc1F)Cc1cccc2ccccc12

Result string:
[41, 34, 0, 0]

====

Tested on: Microsporum canis
assayOverview: Antifungal activity against Microsporum canis
Assay type: functional
So basically: is MIC under 6 µg/mL? Then Y. Not under? Then N.

# count of solved cases: 2
C=CCN(C/C=C/c1ccccc1)Cc1cccc2ccccc12	Y
COc1ccc(CN(C)C/C=C/c2ccccc2)c2ccccc12	Y

Query string: Dear colleague, could you confirm whether MIC of O=S(=O)(C/C=C/c1ccccc1)Cc1cccc2ccccc12 falls below 6 µg/mL? Thanks.
Result string: N

====

Tested on: Aspergillus fumigatus
assayOverview: Antifungal activity measured against Aspergillus fumigatus
Assay type: functional
Record form. Attribute: MIC. Fill in for each entry.

Examples with their reported MIC follow.
CC(c1cccc2ccccc12)N(C)C/C=C/c1ccccc1 (stereo not given)	50 µg/mL
C(=C\c1ccccc1)/CN(C/C=C/c1ccccc1)Cc1cccc2ccccc12	> 100 µg/mL
C[N+](C)(C/C=C/c1ccccc1)Cc1cccc2ccccc12.[I-]	> 100 µg/mL
CN(CCC(=O)c1ccccc1)Cc1cccc2ccccc12	> 100 µg/mL
CN(C/C=C/c1ccccc1)Cc1cn(C)c2ccccc12	> 100 µg/mL
CN(C/C=C/c1ccccc1)Cc1ccc2c(c1)C1CCC2C1 (stereo not given)	> 100 µg/mL
CN(C/C=C/c1ccccc1)Cc1c2ccccc2cc2ccccc12	100 µg/mL
C(=C\c1ccccc1)/C=N/Cc1cccc2ccccc12	> 100 µg/mL
CN(C/C=C\c1ccccc1)Cc1cccc2ccccc12	25 µg/mL
CN(C/C=C/c1ccccc1)CCc1cccc2ccccc12	100 µg/mL

Hi, could you look up MIC for each item in my list?
1. CN(C/C=C/CCc1ccccc1)Cc1cccc2ccccc12
2. CN(C/C=C/c1ccccc1)CC1=CCc2ccccc21
3. [O-][S+](C/C=C/c1ccccc1)Cc1cccc2ccccc12 (stereo not given)
4. CN(C/C=C/c1cccc2ccccc12)Cc1cccc2ccccc12
5. CCOC(=O)/C=C/C=C/CN(C)Cc1cccc2ccccc12

Result string:
1. > 100 µg/mL
2. > 100 µg/mL
3. > 100 µg/mL
4. > 100 µg/mL
5. > 100 µg/mL
